# OD value listing for each entry below
EXPERIMENTAL TARGET: T1, human Nectin-4 extracellular antigen hNectin-4-His (human, UniProt Q96NY8 32-349)
T1 construct: C-terminal 8xHis tag included
T1 sequence: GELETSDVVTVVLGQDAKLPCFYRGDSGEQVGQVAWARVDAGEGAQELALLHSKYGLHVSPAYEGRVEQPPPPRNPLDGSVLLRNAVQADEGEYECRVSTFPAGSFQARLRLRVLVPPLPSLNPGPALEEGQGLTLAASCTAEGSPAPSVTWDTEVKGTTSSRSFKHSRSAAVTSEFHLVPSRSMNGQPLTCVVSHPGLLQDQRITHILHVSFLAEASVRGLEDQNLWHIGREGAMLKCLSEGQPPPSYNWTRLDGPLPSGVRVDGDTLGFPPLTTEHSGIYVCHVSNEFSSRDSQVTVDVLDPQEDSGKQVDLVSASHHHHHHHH
ASSAY TEXT: ELISA, phage scFv supernatant 1:50
Kindly provide the numeric value in OD only, without the unit symbol.

Record excerpt, results attached:
BINDER: 10F4-1F9 scFv (scFv, V domains shown, phage clone supernatant) VH: EVQLVESGGGLVQPGGSLRLSCAASGFSFGGFDMSWVRQAPGKGLEWVSGIKTYGGYRSYADSVKGRFTISRDNSKNTLYLQMNSLRAEDTAVYYCAREYSDVVDYVSVRTPLDYWGQGTLVTVSS VL: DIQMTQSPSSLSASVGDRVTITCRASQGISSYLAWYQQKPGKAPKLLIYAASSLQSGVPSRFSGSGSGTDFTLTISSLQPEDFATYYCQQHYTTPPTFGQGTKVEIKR
UNIT LABEL: OD
OBSERVED MEASUREMENT: 1.48
//
BINDER: 10F4-2B11 scFv (scFv, V domains shown, phage clone supernatant) VH: EVQLVESGGGLVQPGGSLRLSCAASGGSFTNYWMSWVRQAPGKGLEWVSVIDSTGSNRFYADSVKGRFTISRDNSKNTLYLQMNSLRAEDTAVYYCAREYSDVVDYVSVRTPLDYWGQGTLVTVSS VL: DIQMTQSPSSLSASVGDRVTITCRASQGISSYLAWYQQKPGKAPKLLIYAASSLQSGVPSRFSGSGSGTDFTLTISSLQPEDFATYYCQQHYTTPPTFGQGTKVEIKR
UNIT LABEL: OD
OBSERVED MEASUREMENT: 1.55

Prompt: Find the recorded OD value belonging to 1F3-2B2-2 scFv (scFv, V domains shown, phage clone supernatant) VH: EVQLVESGGGLVQPGGSLRLSCAASGYSFSDFGMSWVRQAPGKGLEWVSRIDPSGWSTSYADSVKGRFTISRDNSKNTLYLQMNSLRAEDTAVYYCARAELLAFDVYTASDYWGQGTLVTVSS VL: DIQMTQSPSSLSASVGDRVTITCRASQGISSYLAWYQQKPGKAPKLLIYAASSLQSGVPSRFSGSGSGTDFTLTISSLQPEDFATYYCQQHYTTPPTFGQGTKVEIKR and report it.
Response: 1.59
